Values from PubChem BioAssay AID2060609

tested on: 855422-203-R-J1-PDC complex spheroids, viability; test: Anticancer human tumor 855422-203-R-J1-PDC patient-derived bladder carcinoma cell line growth inhibition [CLK]; details: second compound 0.1 µM; first compound 3.16 µM; hits give low values;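 further: spheroids exposed to drugs for seven days before readout; 100% = DMSO vehicle control wells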
Record form. Attribute: viability, T/C. Fill in for each entry.
Numbers only, in %.

# count of solved cases: 3
molecule	viability, T/C, %
O=C(c1cc(Cc2n[nH]c(=O)c3ccccc23)ccc1F)N1CCN(C(=O)C2CC2)CC1 + CNC(=O)c1ccc(Nc2nc(OC3CCCC3)c3c(-c4ccc5nc(C)oc5c4)c[nH]c3n2)c(OC)c1	57.2
Nc1ccn(C2OC(CO)C(O)C2(F)F)c(=O)n1 (stereo not given) + CNC(=O)c1ccc(Nc2nc(OC3CCCC3)c3c(-c4ccc5nc(C)oc5c4)c[nH]c3n2)c(OC)c1	7.27
C=CC(=O)N1CCN(c2nc(=O)n(-c3c(C)ccnc3C(C)C)c3nc(-c4c(O)cccc4F)c(F)cc23)C(C)C1 (stereo not given) + CN1CCN(c2cc(C(=O)Nc3cc4cc(-c5cnn(C)c5)ccc4cn3)ccn2)CC1	113

// input: 2 molecules below; output: viability, T/C for each
1. CCCS(=O)(=O)Nc1ccc(F)c(C(=O)c2c[nH]c3ncc(-c4ccc(Cl)cc4)cc23)c1F + CN1CCN(c2cc(C(=O)Nc3cc4cc(-c5cnn(C)c5)ccc4cn3)ccn2)CC1
2. Nc1ccn(C2OC(CO)C(O)C2(F)F)c(=O)n1 (stereo not given) + CN1CCN(c2cc(C(=O)Nc3cc4cc(-c5cnn(C)c5)ccc4cn3)ccn2)CC1

[reply]
1. 81.8
2. 5.33
